# maps each entry to its polymerase ribozyme fitness (log ratio)
B1: TPR t1 (parent)
chain: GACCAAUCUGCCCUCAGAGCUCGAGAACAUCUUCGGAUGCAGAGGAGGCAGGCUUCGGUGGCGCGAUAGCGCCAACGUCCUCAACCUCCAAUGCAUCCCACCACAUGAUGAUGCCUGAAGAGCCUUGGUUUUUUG

variants of: B1; test: polymerase ribozyme fitness, log enrichment relative to wild type (log ratio); higher = more active; in vitro selection for triplet polymerase activity
Property measured: polymerase ribozyme fitness (log ratio)

>>> recorded_measurement("G69A C104U G127A U129A")
-2.62
>>> recorded_measurement("A43G G47U")
-3.37
>>> recorded_measurement("C20A C85G")
-3.75
>>> recorded_measurement("G65A G117A")
-4.47
>>> recorded_measurement("C72G C79G")
-1.67
>>> recorded_measurement("A37C C115U U130A U132G")
-1.99
>>> recorded_measurement("C11G C73U")
0.123
>>> recorded_measurement("A27U A43G")
-5.43
>>> recorded_measurement("C20A C82A U87G")
-1.92
>>> recorded_measurement("A105C U109A U133C")
-5.16
>>> recorded_measurement("G52U C99U U132C")
-4.08
